assay: in vitro
Parameters: CellTiter-Glo viability of parental Ba/F3 cells with IL-3 (counter-screen)
test.conditions: mouse, parental ba/f3 cells +il-3; with IL-3; read-out: IC50 parental Ba/F3 (+IL-3)
Threshold 500 nM: CC50 at 72 h strictly smaller gives criterion met, otherwise criterion not met.

Sample answers from the record:
INSERT INTO results (compound_structure, answer_label) VALUES
  ('Cc1cc(Nc2ncc(Cl)c(Nc3ccccc3S(=O)(=O)C(C)C)n2)c(OC(C)C)cc1C1CCNCC1', 'criterion not met'),
  ('CCc1nc(C(N)=O)c(Nc2ccc(N3CCC(N4CCN(C)CC4)CC3)c(OC)c2)nc1NC1CCOCC1', 'criterion met'),
  ('C[C@@H](Oc1cc(-c2cnn(C3CCNCC3)c2)cnc1N)c1c(Cl)ccc(F)c1Cl', 'criterion met');

*Q* hey, is CC50 at 72 h for CN1CCN(c2ccc(C(=O)Nc3n[nH]c4ccc(Cc5cc(F)cc(F)c5)cc34)c(NC3CCOCC3)c2)CC1 lower than 500 nM or not?
*A* criterion met

*Q* Request: CCc1cc2c(cc1N1CCC(N3CCOCC3)CC1)C(C)(C)c1[nH]c3cc(C#N)ccc3c1C2=O
*A* criterion not met

*Q* Request: COc1cc(N2CCC(N3CCN(C)CC3)CC2)ccc1Nc1ncc(Cl)c(Nc2ccccc2P(C)(C)=O)n1
*A* criterion not met

*Q* Request: C[C@H]1Oc2cc(cnc2N)-c2c(nn(C)c2C#N)CN(C)C(=O)c2ccc(F)cc21
*A* criterion not met

Every entry's value here was drawn from paper PMC7904790.
